Just for reference, patent US20240254119A1 is where these values come from.

Molecular target: CSF-1R (Homo sapiens)
Construct: purchased Invitrogen PV3249 (lot 662393N)
Sequence (P07333 20-972): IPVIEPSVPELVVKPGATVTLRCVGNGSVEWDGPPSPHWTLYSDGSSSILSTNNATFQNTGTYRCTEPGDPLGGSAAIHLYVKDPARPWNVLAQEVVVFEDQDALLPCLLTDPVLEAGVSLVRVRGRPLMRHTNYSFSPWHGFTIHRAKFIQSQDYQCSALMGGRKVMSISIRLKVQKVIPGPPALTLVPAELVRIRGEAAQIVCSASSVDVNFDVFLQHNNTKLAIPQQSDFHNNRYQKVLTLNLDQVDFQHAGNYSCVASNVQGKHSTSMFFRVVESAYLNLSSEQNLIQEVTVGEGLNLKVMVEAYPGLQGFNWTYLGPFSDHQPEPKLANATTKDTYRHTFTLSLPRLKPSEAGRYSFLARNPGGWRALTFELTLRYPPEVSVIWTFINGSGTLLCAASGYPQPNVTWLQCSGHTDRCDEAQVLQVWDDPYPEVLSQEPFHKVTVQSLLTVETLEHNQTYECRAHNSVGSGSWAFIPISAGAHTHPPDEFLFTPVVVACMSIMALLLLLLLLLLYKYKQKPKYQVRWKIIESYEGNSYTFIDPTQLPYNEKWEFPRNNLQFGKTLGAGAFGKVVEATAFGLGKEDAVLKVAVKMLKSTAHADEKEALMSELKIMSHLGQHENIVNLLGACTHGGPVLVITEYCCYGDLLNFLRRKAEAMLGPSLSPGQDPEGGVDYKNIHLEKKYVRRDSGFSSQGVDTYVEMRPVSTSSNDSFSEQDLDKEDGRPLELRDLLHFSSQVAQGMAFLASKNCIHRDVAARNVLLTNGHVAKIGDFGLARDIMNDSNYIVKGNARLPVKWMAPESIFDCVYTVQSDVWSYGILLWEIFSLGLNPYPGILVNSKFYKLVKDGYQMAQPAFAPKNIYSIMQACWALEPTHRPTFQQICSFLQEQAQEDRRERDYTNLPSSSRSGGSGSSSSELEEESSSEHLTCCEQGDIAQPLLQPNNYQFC
Assay: Caliper biochemical assay, CSF-1R
Settings: Table 6
pIC50: −log10 of the molar value.
MEASURED_ATTRIBUTE: pIC50

compound="COC(=O)CS(=O)(=O)N1CCC1c1nc(-c2ccc(C)c(NC(=O)c3cnc4ccccn34)c2)no1 (stereo not drawn) [Compound I-197]" measured_attribute=pIC50 test_result="6.30 to 7.30"
compound="COC(=O)N1CC(c2nc(-c3ccc(C)c(NC(=O)c4cnc5cc(OCCO)ccn45)c3)no2)C1 [Compound I-264]" measured_attribute=pIC50 test_result="≥ 7.30"
compound="Cc1ccc(-c2noc(C3CC3(C)C)n2)cc1NC(=O)c1cnc2ccccn12 (stereo not drawn) [Compound I-127]" measured_attribute=pIC50 test_result="≥ 7.30"
compound="Cc1ccc(-c2noc(C3CC(OCCF)C3)n2)cc1NC(=O)c1cnc2ccccn12 (stereo not drawn) [Compound I-369]" measured_attribute=pIC50 test_result="6.30 to 7.30"
compound="CCCS(=O)(=O)N1CC(c2nc(-c3ccc(Cl)c(NC(=O)c4cnc5ccccn45)c3)no2)C1 [Compound I-220]" measured_attribute=pIC50 test_result="6.30 to 7.30"
compound="Cc1ccc(-c2noc(C3CC(Oc4ccccc4)C3)n2)cc1NC(=O)c1cnc2ccccn12 (stereo not drawn) [Compound I-348]" measured_attribute=pIC50 test_result="6.30 to 7.30"
compound="Cc1ccc(-c2noc([C@H](C)NS(=O)(=O)c3cnn(C)c3)n2)cc1NC(=O)c1cnc2ccccn12 (racemic) [Compound I-181]" measured_attribute=pIC50 test_result="≥ 7.30"
compound="Cc1ccc(-c2noc(C3CCS(=O)(=O)N3)n2)cc1NC(=O)c1cnc2ccccn12 (racemic) [Compound I-330]" measured_attribute=pIC50 test_result="≥ 7.30"
compound="Cc1ccc(-c2noc([C@H](C)O)n2)cc1NC(=O)c1cnc2ccccn12 [Compound I-271]" measured_attribute=pIC50 test_result="6.30 to 7.30"
compound="Cc1ccc(-c2noc(C3(N)CC4(CC(F)(F)C4)C3)n2)cc1NC(=O)c1cnc2ccccn12 [Compound I-307]" measured_attribute=pIC50 test_result="≥ 7.30"
compound="Cc1nc(-c2ccc(C)c(NC(=O)c3cnc4cc(COCC(F)(F)F)ccn34)c2)no1 [Compound I-133]" measured_attribute=pIC50 test_result="5.30 to 6.30"
compound="Cc1ccc(-c2noc([C@@H]3CCN3S(=O)(=O)c3cccnc3)n2)cc1NC(=O)c1cnc2ccccn12 [Compound I-185]" measured_attribute=pIC50 test_result="≥ 7.30"
compound="Cc1ccc(-c2noc(C3CN(C(=O)CO)C3)n2)cc1NC(=O)c1cnc2ccccn12 [Compound I-287]" measured_attribute=pIC50 test_result="4.52 to 5.30"
compound="CCS(=O)(=O)N1CC[C@@H]1c1nc(-c2ccc(C)c(NC(=O)c3cnc4ccccn34)c2)no1 [Compound I-234]" measured_attribute=pIC50 test_result="≥ 7.30"
compound="COCCS(=O)(=O)N1CC[C@H]1c1nc(-c2ccc(C)c(NC(=O)c3cnc4ccccn34)c2)no1 [Compound I-189]" measured_attribute=pIC50 test_result="6.30 to 7.30"
compound="Cc1nc(-c2ccc(C)c(NC(=O)c3cnc4ccccn34)c2)no1 [Compound I-360]" measured_attribute=pIC50 test_result="5.30 to 6.30"
compound="Cc1ccc(-c2noc(C3CC4(C3)CC(F)(F)C4)n2)cc1NC(=O)c1cnc2ccccn12 [Compound I-266]" measured_attribute=pIC50 test_result="≥ 7.30"
compound="Cc1ccc(-c2noc([C@H]3CCN3C(C)C)n2)cc1NC(=O)c1cnc2ccccn12 [Compound I-194]" measured_attribute=pIC50 test_result="≥ 7.30"
compound="Cc1ccc(-c2noc([C@H]3C[C@@H]3F)n2)cc1NC(=O)c1cnc2cc(OC(C)C)ccn12 [Compound I-88]" measured_attribute=pIC50 test_result="≥ 7.30"
compound="Cc1ccc(-c2noc([C@H]3C[C@@H]3F)n2)cc1NC(=O)c1cnc2ccc(N3CCC3)cn12 [Compound I-291]" measured_attribute=pIC50 test_result="≥ 7.30"
compound="Cc1cc(C)c(-c2noc(C3CC3(F)F)n2)cc1NC(=O)c1cnc2ccccn12 (racemic) [Compound I-129]" measured_attribute=pIC50 test_result="≥ 7.30"
compound="O=C(Nc1cc(-c2noc([C@@H]3CC(F)(F)CN3)n2)ccc1Cl)c1cnc2ccccn12 [Compound I-221]" measured_attribute=pIC50 test_result="6.30 to 7.30"
compound="Cc1ccc(-c2noc([C@H]3C[C@@H]3F)n2)cc1NC(=O)c1cnc2ccc(N3CCCC3)cn12 [Compound I-361]" measured_attribute=pIC50 test_result="≥ 7.30"
compound="Cc1ccc(-c2noc(CC(=O)OCc3ccccc3)n2)cc1NC(=O)c1cnc2ccccn12 [Compound I-322]" measured_attribute=pIC50 test_result="6.30 to 7.30"
compound="Cc1ccc(-c2noc(C3CCCCN3S(C)(=O)=O)n2)cc1NC(=O)c1cnc2ccccn12 (racemic) [Compound I-174]" measured_attribute=pIC50 test_result="≥ 7.30"
compound="Cc1ccc(-c2noc([C@H]3C[C@@H]3F)n2)cc1NC(=O)c1cnc2cc(Br)ccn12 [Compound I-383]" measured_attribute=pIC50 test_result="≥ 7.30"
compound="Cc1ccc(-c2noc([C@@H]3CCN3S(=O)(=O)C3CCOCC3)n2)cc1NC(=O)c1cnc2ccccn12 [Compound I-187]" measured_attribute=pIC50 test_result="6.30 to 7.30"
compound="Cc1ccc(-c2noc([C@@H]3CCN3S(=O)(=O)c3ccccc3)n2)cc1NC(=O)c1cnc2ccccn12 [Compound I-186]" measured_attribute=pIC50 test_result="6.30 to 7.30"
compound="Cc1ccc(-c2noc(CO)n2)cc1NC(=O)c1cnc2ccccn12 [Compound I-337]" measured_attribute=pIC50 test_result="6.30 to 7.30"
compound="Cc1ccc(-c2noc(C3(CO)CC(F)(F)C3)n2)cc1NC(=O)c1cnc2ccccn12 [Compound I-320]" measured_attribute=pIC50 test_result="≥ 7.30"
